Test system HCT-15, GI50 listed for each of the molecules.
Number in µM, nothing else.

Below, each entry is followed by its recorded GI50 result.
Cc1nc2ccccc2c(=O)n1/N=C(\N=N\c1ccc(Cl)cc1)c1cccc(-c2ccco2)c1
30.2
N=C(N)NCCCC(NCc1c2ccccc2nc2ccccc12)C(=O)O (stereo not drawn)
29.4
C=C1C(=O)O[C@@H]2O[C@@]3(C)CC[C@H]4[C@H](C)CC[C@@H]1[C@@]24O3 [DEOXYARTEMISITENE]
10.9

Now, please, on to the next molecule.
Prompt: Identify the measured GI50 of C/C=C(/C)C(=O)O[C@H]1[C@H]2[C@@H]([C@@H](OC(C)=O)[C@H](C)C(=O)[C@@]34C[C@@H](C)C(=O)[C@]3(/C=C(\C)[C@H]1OC(C)=O)O4)C2(C)C for HCT-15.
Response: 3

---

Listing of entries alongside the reported GI50.
System: HL-60
Test: NCI tumour cell line growth inhibition, 48 h
Activity calls are given as the source filed them. Cut-off read from the data, not from the text of the source: active = GI50 up to about 1.1 µM and inactive = higher.

Below, each entry is followed by its recorded GI50 result.
N=C1N(S(=O)(=O)c2ccccc2)[C@@H](Cc2ccccc2)[C@H](c2ccccc2)C1(c1ccccc1)c1ccccc1
4.12 µM (inactive)
CCN(CC)CCOc1ccc(C(O)(Cc2ccc(OC)cc2)c2ccccc2)cc1 (stereo not given)
7.52 µM (inactive)
O=C(CC(C(=O)c1ccoc1)c1ccco1)c1ccco1 (stereo not given)
> 100 µM (inactive)

Prompt: Identify the measured GI50 of Cn1c(=O)c(C(=O)NC23CC4CC(CC(C4)C2)C3)c(O)c2ccccc21 for HL-60.
Response: 25.1 µM (inactive)

Prompt: Identify the measured GI50 of Cc1ccc(-c2nc3cc(F)c(N4CCN(C)CC4)cc3[nH]2)cc1 for HL-60.
Response: 21.4 µM (inactive)

---

Tested on: MDA-N
Assay: NCI tumour cell line growth inhibition, 48 h
The source made the active and inactive calls. Rule as the data show it: active = GI50 up to about 1.1 µM and inactive = higher.
readout type: GI50

OC(c1cc2ccc(C(F)(F)F)cc2c2cc(C(F)(F)F)ccc12)C1CCCCN1 (stereo not given)
1.75 µM (inactive)
O=C1NN=C2C=C(c3ccc(Cl)cc3)CC(c3cccc(Br)c3)C12 (stereo not given)
> 100 µM (inactive)
CC(=O)c1ccccc1NP(=O)(c1ccccc1)c1ccccc1
36.9 µM (inactive)
O=C(CN1C(=O)c2ccccc2C1=O)C(O)CN1C(=O)c2ccccc2C1=O (stereo not given)
> 100 µM (inactive)
O=[As](O)(O)c1ccc(/N=N/c2ccc([As](=O)(O)O)cc2)cc1
> 100 µM (inactive)

Prompt: Using the record for O=S(=O)(O)c1ccc2cc(/N=N/c3c(O)ccc4ccccc34)ccc2c1 , report its GI50.
Response: > 100 µM (inactive)

Prompt: Using the record for CC(Br)C(=O)NN1C2=C(Nc3ccccc31)c1cccc3cccc2c13 (stereo not given) , report its GI50.
Response: 90.6 µM (inactive)

---

Test system: ACHN
Test: NCI tumour cell line growth inhibition, 48 h
Active and inactive are the calls of the source. Cut-off read from the data, not from the text of the source: active = GI50 up to about 1.1 µM and inactive = higher.
readout type: GI50

Below, each entry is followed by its recorded GI50 result.
C/C=C(/C)C(=O)O[C@H]1[C@H]2[C@@H]([C@@H](OC(C)=O)[C@H](C)C(=O)[C@@]34C[C@@H](C)C(=O)[C@]3(/C=C(\C)[C@H]1OC(C)=O)O4)C2(C)C
3.8 µM (inactive)
OCCOCn1nncc1Cn1ncc2c(O)ncnc21
> 100 µM (inactive)
C[N+](C)(C)CCN[N+]1(C)CCCc2ccccc21 (stereo not given)
> 100 µM (inactive)
CC(CC(=O)Nc1ccc(NC(=O)CC(C)/N=N\C(N)=O)cc1)/N=N\C(N)=O (stereo not given)
> 100 µM (inactive)
COc1ccc2c(c1)[n+]([O-])c(-c1ccc(OC)c(OC)c1)c(N)[n+]2[O-]
51.3 µM (inactive)
O=c1oc2ccc([N+](=O)[O-])cc2c(Nc2ccc3c(c2)Oc2ccccc2O3)c1[N+](=O)[O-]
32.2 µM (inactive)

Prompt: Using the record for COC(=O)[C@@]12CC[C@]1(C(=O)OC)C1C(C)=CC(=O)O[C@@]12C (stereo not given in full) , report its GI50.
Response: > 100 µM (inactive)

Prompt: Using the record for COc1ccc(CC2NCCc3cc(OC)c(OC)cc32)cc1 (stereo not given) , report its GI50.
Response: > 100 µM (inactive)

Prompt: Using the record for c1cc2cc3c4c5c(cc6ccc7cc8cc9c%10c8c8c7c6c5c8c5c%10c(c1C9N1CCOCCOCCOCCOCCOCC1)c2c45)C3 (stereo not given) , report its GI50.
Response: > 100 µM (inactive)

Prompt: Using the record for CC(Br)C(=O)NN1C2=C(Nc3ccccc31)c1cccc3cccc2c13 (stereo not given) , report its GI50.
Response: 31.2 µM (inactive)

---

Tested on: SR
Experiment: NCI tumour cell line growth inhibition, 48 h
Calls of active or inactive are those of the source. No stated cut-off is given here; in the data, active = GI50 up to about 1.1 µM and inactive = higher.
// one of active, inactive, no free text

Solved cases below.
CC1CCC(C(C)C)C(OC(=O)NCn2cc(-c3ccccc3)nn2)C1 (stereo not given)
inactive
CCCCCCCCCCCCCC(=O)O[C@H]1CC[C@H](NC(=O)[C@H](OC)[C@H](O)[C@@H](O)[C@H](O)/C=C/C(C)C)C(=O)N(C)C1 [BENGAMIDE B]
active
O=C(CSC1=NC(=O)C2(NN1)c1ccccc1-c1ccccc12)NC(=S)Nc1ccccc1
inactive
C/C=C(/C)C(=O)O[C@H]1[C@H]2[C@@H]([C@@H](OC(C)=O)[C@H](C)C(=O)[C@@]34C[C@@H](C)C(=O)[C@]3(/C=C(\C)[C@H]1OC(C)=O)O4)C2(C)C
inactive

Field: next compound
Prompt: Check the results log: what was the call for OC(C1=C/C(=C\c2ccncc2)c2ccccc21)c1ccncc1 (stereo not given) ?
Response: inactive

---

Test system: CCRF-CEM
Assay: NCI tumour cell line growth inhibition, 48 h
Activity calls are given as the source filed them. Cut-off read from the data, not from the text of the source: active = GI50 up to about 1.1 µM and inactive = higher.
readout type: GI50

Below, each entry is followed by its recorded GI50 result.
NC(CC(O)(c1ccccc1)c1ccccc1)c1ccccc1S (stereo unspecified)
13 µM (inactive)
CCOC(=O)NC1C2CC(=O)OC(O2)C1OC(C)=O (stereo unspecified)
> 100 µM (inactive)
CCc1n[nH]c(=O)n1/N=C/c1ccccc1Cl
> 100 µM (inactive)
O=C1OC(O)C(Oc2ccc(Cl)cc2)=C1Cl (stereo unspecified)
> 100 µM (inactive)
Cc1nc2ccc(F)cc2c(Cl)c1CCCl
18.6 µM (inactive)

Prompt: Using the record for CCOc1ccc(NC(=O)CC2SC(Nc3ccc(C)cc3)=NC2=O)cc1 (stereo unspecified) , report its GI50.
Response: 29.2 µM (inactive)

---

Test system: OVCAR-8
Test: NCI tumour cell line growth inhibition, 48 h
Activity calls are given as the source filed them. Cut-off read from the data, not from the text of the source: active = GI50 up to about 1.1 µM and inactive = higher.
readout type: GI50

Below, each entry is followed by its recorded GI50 result.
N/C1=C/C(=O)NC(=O)c2c(c3ccccc3oc2=O)C1
> 100 µM (inactive)
CCC1(O)C(=O)OCc2c1cc1n(c2=O)Cc2cc3cc(N)ccc3nc2-1 (stereo unspecified)
< 0.0128 µM (active)
COC1(OC)c2no[n+]([O-])c2CCC1O (stereo unspecified)
> 100 µM (inactive)
Cc1cc(O)nc(NNC(C#N)c2ccc(N(C)C)cc2)n1 (stereo unspecified)
> 100 µM (inactive)

Prompt: Using the record for Cc1cccc(Nc2cnc(N)nc2N)c1 , report its GI50.
Response: > 100 µM (inactive)

Prompt: Using the record for COC(=O)CC1(O)C(C=C(C)C)C(C(=O)OC)C(=O)C(C(=O)OC)C1C(=O)OC (stereo unspecified) , report its GI50.
Response: > 100 µM (inactive)

Prompt: Using the record for Cc1cc(C)c2c(O)cc(-c3cccc(Cl)c3)nc2n1 , report its GI50.
Response: 0.4 µM (active)

Prompt: Using the record for C/C(=C\Cc1cc(O)ccc1O)CCc1c(C)c(O)c(O)c(C=O)c1C , report its GI50.
Response: 17.9 µM (inactive)

Prompt: Using the record for Cc1cc(N(CCC#N)CCC#N)ccc1/C=C(\NC(=O)/C=C/c1ccccc1)C(=O)N=[N+]=[N-] , report its GI50.
Response: > 100 µM (inactive)

Prompt: Using the record for C/C(=N\NS(=O)(=O)c1ccccc1)c1ccc(Cl)c(Cl)c1 , report its GI50.
Response: 40.6 µM (inactive)

Prompt: Using the record for CCN(CC)CCOc1ccc(C(O)(Cc2ccc(OC)cc2)c2ccccc2)cc1 (stereo unspecified) , report its GI50.
Response: 33.6 µM (inactive)

Prompt: Using the record for O=C(Nc1ccc([N+](=O)[O-])cc1)C(=O)C(C(=O)c1ccccc1F)C1OC(=O)c2ccccc21 (stereo unspecified) , report its GI50.
Response: 35.9 µM (inactive)

Prompt: Using the record for COc1ccc(C2CC(c3cc4c(C)c(C(=O)c5ccccc5)oc4cc3O)=Nc3ccccc3S2)cc1OC (stereo unspecified) , report its GI50.
Response: > 100 µM (inactive)

Prompt: Using the record for CCCCC(=O)Oc1ccc2c(C)cc(=O)oc2c1 , report its GI50.
Response: > 100 µM (inactive)

Prompt: Using the record for C[C@]12CC[C@@H]3c4ccc(O)cc4CC[C@H]3[C@@H]1CC[C@@H]2OC(=O)CCc1ccccc1 , report its GI50.
Response: 22.8 µM (inactive)

Prompt: Using the record for O=C1CCCC/C1=C1/SC(=N/c2ccccc2)/C(=N\c2ccccc2)N1c1ccccc1 , report its GI50.
Response: > 100 µM (inactive)

Prompt: Using the record for CN(C)CCNC1=Nc2ccccc2C(=O)N2CSCC12 (stereo unspecified) , report its GI50.
Response: > 100 µM (inactive)

Prompt: Using the record for COc1cccc(OCC(=N/NC(=O)c2ccncc2)/N=C/c2cccnc2)c1 , report its GI50.
Response: 86.3 µM (inactive)

Prompt: Using the record for O=C1c2ccccc2C(=O)N1C/C=N/NS(=O)(=O)c1ccc(Cl)cc1 , report its GI50.
Response: > 100 µM (inactive)

Prompt: Using the record for COc1cc(/C=N/N=C(\N)NO)cc(Cl)c1O , report its GI50.
Response: 65.6 µM (inactive)

Prompt: Using the record for CS(=O)(=O)NNS(=O)(=O)c1ccccc1 , report its GI50.
Response: > 100 µM (inactive)

Prompt: Using the record for C[N+](C)(C)CCN[N+]1(C)CCCc2ccccc21 (stereo unspecified) , report its GI50.
Response: > 100 µM (inactive)

Prompt: Using the record for CC1=NN(c2cccc(Cl)c2)C2(SCC(=O)N2c2nc3ccccc3s2)C1=CC=Cc1ccccc1 (stereo unspecified) , report its GI50.
Response: 35.6 µM (inactive)

Prompt: Using the record for Cc1ccccc1-n1c(=O)sc2c(=O)n(-c3ccccc3)c(=S)[nH]c21 , report its GI50.
Response: > 100 µM (inactive)
